UniProt:Q13822 measurements of pIC50, listed per entry.
pIC50: −log10 of the molar value.
Assay Readout: pIC50

>  <Compound>
O=C(OCc1cc(Cl)cc(Cl)c1)N1CC[C@H]2CN(C(=O)c3ccc4[nH]nnc4c3)C[C@H]2C1 [Example 10B]

>  <pIC50>
6.93

$$$$

1. O=C(CCc1ccc(-c2cccnc2)cc1)N1C[C@@H]2CN(C(=O)c3ccc4[nH]nnc4c3)C[C@H]2C1 [Example 17.12]
2. O=C(/C=C/c1ccc(SC(F)(F)F)cc1)N1CC[C@@H]2CN(C(=O)c3ccc4[nH]nnc4c3)C[C@@H]2CC1 [Example 15.69]
**Query** Of 1 and 2 , whose reported pIC50 is numerically smaller? Write down the label of the entry you select.
**Result** 1
